test: Solubility of antibacterial peptides in solution; format: physicochemical; conditions: water
Square brackets hold non-standard residues; d marks the D form. Peptide text beside a SMILES is read from it.

COMPOUND	solubility at 12 h
CC[C@@H](C)[C@@H](NC(=O)[C@@H](Cc1c[nH]c2ccccc12)NC(=O)[C@@H](CCCNC(=N)N)NC(=O)[C@@H](CCCNC(=N)N)NC(=O)[C@H](N)CCCNC(=N)N)C(=O)N[C@H](Cc1c[nH]c2ccccc12)C(=O)N[C@@H](C(=O)N[C@H](CC(C)C)C(=O)N[C@H](Cc1c[nH]c2ccccc12)C(=O)N[C@H](CCCCN)C(N)=O)C(C)C [KSH43, rrrwiwvlwk] (H-[dR][dR][dR][dW][dI][dW][dV][dL][dW][dK]-NH2; N-terminus assumed)	> 2000 µM
CC[C@@H](C)[C@@H](NC(=O)[C@@H](Cc1c[nH]c2ccccc12)NC(=O)[C@H](NC(=O)[C@@H](CC(C)C)NC(=O)[C@H](N)Cc1c[nH]c2ccccc12)C(C)C)C(=O)N[C@H](Cc1c[nH]c2ccccc12)C(=O)N[C@H](CCC(N)=O)C(=O)N[C@H](CCCNC(=N)N)C(=O)N[C@H](CCCNC(=N)N)C(=O)N[C@H](CCCNC(=N)N)C(N)=O [KSH30, wlvwiwqrrr] (H-[dW][dL][dV][dW][dI][dW][dQ][dR][dR][dR]-NH2; N-terminus assumed)	> 2000 µM
CC[C@@H](C)[C@@H](NC(=O)[C@@H](Cc1c[nH]c2ccccc12)NC(=O)[C@@H](CCCCN)NC(=O)[C@@H](CCCCN)NC(=O)[C@H](N)CCCCN)C(=O)N[C@H](Cc1c[nH]c2ccccc12)C(=O)N[C@@H](C(=O)N[C@H](CC(C)C)C(=O)N[C@H](Cc1c[nH]c2ccccc12)C(=O)N[C@H](CCCCN)C(N)=O)C(C)C [KSH46, kkkwiwvlwk] (H-[dK][dK][dK][dW][dI][dW][dV][dL][dW][dK]-NH2; N-terminus assumed)	> 2000 µM
CC[C@@H](C)[C@@H](NC(=O)[C@@H](Cc1c[nH]c2ccccc12)NC(=O)[C@H](NC(=O)[C@@H](CC(C)C)NC(=O)[C@H](N)Cc1c[nH]c2ccccc12)C(C)C)C(=O)N[C@H](Cc1c[nH]c2ccccc12)C(=O)N[C@H](CCCNC(=N)N)C(=O)N[C@H](CCCNC(=N)N)C(=O)N[C@H](CCCNC(=N)N)C(N)=O [KSH29, wlvwiwrrr] (H-[dW][dL][dV][dW][dI][dW][dR][dR][dR]-NH2; N-terminus assumed)	> 2000 µM
CC[C@@H](C)[C@@H](NC(=O)[C@@H](Cc1c[nH]c2ccccc12)NC(=O)[C@H](NC(=O)[C@@H](CC(C)C)NC(=O)[C@@H](Cc1c[nH]c2ccccc12)NC(=O)[C@H](N)CC(=O)O)C(C)C)C(=O)N[C@H](Cc1c[nH]c2ccccc12)C(=O)N[C@H](CCCNC(=N)N)C(=O)N[C@H](CCCNC(=N)N)C(=O)N[C@H](CCCNC(=N)N)C(N)=O [KSH36, dwlvwiwrrr] (H-[dD][dW][dL][dV][dW][dI][dW][dR][dR][dR]-NH2; N-terminus assumed)	> 2000 µM
